Taken from paper PMC9571433.

- Tested on: E. coli ATCC 25922
- TEST PROTOCOL: Broth microdilution MIC/MBC
- TEST SETTINGS: Escherichia coli, ATCC25922, 24 h, read-out: MIC = MBC
MIC values, listed per item
Reply with the number and its unit after it.

MOLECULE: C=CCn1c(=O)c2ccccc2n(Cc2ccccc2F)c1=O [24b]
STUDY TARGET: E. coli ATCC 25922
MIC: 2500 µg/mL
//
MOLECULE: CCOP(=O)(OCC)[C@H]1C[C@H](Cn2c(=O)c3ccccc3n(Cc3ccccc3)c2=O)ON1Cc1ccccc1 (relative stereo)
STUDY TARGET: E. coli ATCC 25922
MIC: 2500 µg/mL
//
MOLECULE: CCOP(=O)(OCC)C1CC(Cn2c(=O)c3ccccc3n(Cc3ccc(F)cc3)c2=O)ON1Cc1ccccc1 (stereo not drawn)
STUDY TARGET: E. coli ATCC 25922
MIC: 1250 µg/mL
//
MOLECULE: CCOP(=O)(OCC)[C@H]1C[C@H](Cn2c(=O)c3ccccc3n(Cc3ccccc3F)c2=O)ON1C (relative stereo)
STUDY TARGET: E. coli ATCC 25922
MIC: 2500 µg/mL

// field: MIC; key: CCOP(=O)(OCC)C1CC(Cn2c(=O)c3ccccc3n(Cc3ccccc3)c2=O)ON1C (stereo not drawn) [cis-20a/trans-20a (10:90)] ; value = 1250 µg/mL

// field: MIC; key: CCOP(=O)(OCC)C1CC(Cn2c(=O)c3ccccc3n(Cc3ccccc3F)c2=O)ON1Cc1ccccc1 (stereo not drawn) ; value = 2500 µg/mL
